Biological target: p38 MAPK (Homo sapiens)
Construct: expressed in transfected cells; host or cells: HeLa (kinase immunoprecipitated from lysates of transfected, stimulated cells)
Sequence (Q16539 whole entry): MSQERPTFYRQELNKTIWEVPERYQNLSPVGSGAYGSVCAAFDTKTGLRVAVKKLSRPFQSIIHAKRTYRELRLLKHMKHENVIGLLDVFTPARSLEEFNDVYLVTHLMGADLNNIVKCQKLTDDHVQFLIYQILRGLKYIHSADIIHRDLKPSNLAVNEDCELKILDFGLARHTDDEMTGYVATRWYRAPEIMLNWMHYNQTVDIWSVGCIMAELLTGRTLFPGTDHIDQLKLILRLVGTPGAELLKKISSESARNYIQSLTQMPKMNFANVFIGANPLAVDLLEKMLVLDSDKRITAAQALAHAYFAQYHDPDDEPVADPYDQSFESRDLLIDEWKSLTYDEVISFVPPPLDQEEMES
Assay: p38 MAPK phosphorylation assay (similar to Kumar)
Format: biochemical
outcome measure: IC50

### Prompt GET /values?readout=IC50&system=p38 MAPK (Homo sapiens)&item= COCn1cc(C(=O)C(=O)N(C)C)c2cc(C(=O)N3C[C@H](C)N(Cc4ccc(F)cc4)C[C@H]3C)c(OC)cc21
### Response < 5 nM
